- Measurement Target: CSNK1E (human) (UniProt P49674)
- Sequence (P49674 whole entry, looked up): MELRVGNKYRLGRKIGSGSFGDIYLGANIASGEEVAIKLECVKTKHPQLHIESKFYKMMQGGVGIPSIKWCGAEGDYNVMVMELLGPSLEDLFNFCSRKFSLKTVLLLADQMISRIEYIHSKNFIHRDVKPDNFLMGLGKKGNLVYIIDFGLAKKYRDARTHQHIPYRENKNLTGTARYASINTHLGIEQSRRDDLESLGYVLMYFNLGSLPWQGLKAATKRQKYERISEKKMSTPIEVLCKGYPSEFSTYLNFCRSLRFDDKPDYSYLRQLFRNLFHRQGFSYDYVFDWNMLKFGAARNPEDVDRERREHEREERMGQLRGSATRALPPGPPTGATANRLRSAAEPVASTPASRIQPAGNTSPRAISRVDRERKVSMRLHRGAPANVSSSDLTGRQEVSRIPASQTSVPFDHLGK
- Protocol Summary: KINOMEscan competition binding
- Protocol Conditions: compound 10.0 µM

- Structure Smiles String: "Cc1ccc(C(=O)Nc2cccc(C(C)(C)C)c2)cc1-c1ccc(C(=O)NCC2CC2)cc1"
  kinase still bound, per cent of control: "no effect (inactive)"
- Structure Smiles String: "c1ccc(-c2n[nH]cc2-c2ccnc3ccccc23)nc1"
  kinase still bound, per cent of control: "0%"
- Structure Smiles String: "CC(=O)c1c(-c2ccncc2)[nH]c(-c2ccncc2)c1C"
  kinase still bound, per cent of control: "0%"
- Structure Smiles String: "Nc1ncnc2c1c(-c1cccc(O)c1)cn2C1CCNCC1"
  kinase still bound, per cent of control: "0%"
- Structure Smiles String: "Cc1ccc(NC(=O)c2cccc(N3CCCCC3)c2)cc1-c1ccc(C(=O)NCC2CC2)cc1"
  kinase still bound, per cent of control: "no effect (inactive)"
- Structure Smiles String: "O=C1Nc2ccccc2/C1=C/c1ccc[nH]1"
  kinase still bound, per cent of control: "0%"
- Structure Smiles String: "Cc1ccc(O)cc1Nc1ccnc(Nc2cccc(C(N)=O)c2)n1"
  kinase still bound, per cent of control: "0%"
- Structure Smiles String: "CCS(=O)(=O)Nc1ccc2c(c1)[C@H](/C(=N/c1ccc(CN3CCCCC3)cc1)c1ccccc1)C(=O)N2"
  kinase still bound, per cent of control: "2.4%"

###

- Measurement Target: NEK2 (human)
- Protocol Summary: KINOMEscan competition binding
- Protocol Conditions: compound 10.0 µM

- Structure Smiles String: "CN(C)c1ccc(-c2cc3ncccc3c(NCCCCN)n2)cc1"
  kinase still bound, per cent of control: "no effect (inactive)"
- Structure Smiles String: "c1ccc(-c2n[nH]cc2-c2ccnc3ccccc23)nc1"
  kinase still bound, per cent of control: "no effect (inactive)"
- Structure Smiles String: "O=C1Nc2ccccc2/C1=C/c1ccc[nH]1"
  kinase still bound, per cent of control: "no effect (inactive)"

###

- Measurement Target: ERBB2 (human) (UniProt P04626)
- Sequence (P04626 whole entry, looked up): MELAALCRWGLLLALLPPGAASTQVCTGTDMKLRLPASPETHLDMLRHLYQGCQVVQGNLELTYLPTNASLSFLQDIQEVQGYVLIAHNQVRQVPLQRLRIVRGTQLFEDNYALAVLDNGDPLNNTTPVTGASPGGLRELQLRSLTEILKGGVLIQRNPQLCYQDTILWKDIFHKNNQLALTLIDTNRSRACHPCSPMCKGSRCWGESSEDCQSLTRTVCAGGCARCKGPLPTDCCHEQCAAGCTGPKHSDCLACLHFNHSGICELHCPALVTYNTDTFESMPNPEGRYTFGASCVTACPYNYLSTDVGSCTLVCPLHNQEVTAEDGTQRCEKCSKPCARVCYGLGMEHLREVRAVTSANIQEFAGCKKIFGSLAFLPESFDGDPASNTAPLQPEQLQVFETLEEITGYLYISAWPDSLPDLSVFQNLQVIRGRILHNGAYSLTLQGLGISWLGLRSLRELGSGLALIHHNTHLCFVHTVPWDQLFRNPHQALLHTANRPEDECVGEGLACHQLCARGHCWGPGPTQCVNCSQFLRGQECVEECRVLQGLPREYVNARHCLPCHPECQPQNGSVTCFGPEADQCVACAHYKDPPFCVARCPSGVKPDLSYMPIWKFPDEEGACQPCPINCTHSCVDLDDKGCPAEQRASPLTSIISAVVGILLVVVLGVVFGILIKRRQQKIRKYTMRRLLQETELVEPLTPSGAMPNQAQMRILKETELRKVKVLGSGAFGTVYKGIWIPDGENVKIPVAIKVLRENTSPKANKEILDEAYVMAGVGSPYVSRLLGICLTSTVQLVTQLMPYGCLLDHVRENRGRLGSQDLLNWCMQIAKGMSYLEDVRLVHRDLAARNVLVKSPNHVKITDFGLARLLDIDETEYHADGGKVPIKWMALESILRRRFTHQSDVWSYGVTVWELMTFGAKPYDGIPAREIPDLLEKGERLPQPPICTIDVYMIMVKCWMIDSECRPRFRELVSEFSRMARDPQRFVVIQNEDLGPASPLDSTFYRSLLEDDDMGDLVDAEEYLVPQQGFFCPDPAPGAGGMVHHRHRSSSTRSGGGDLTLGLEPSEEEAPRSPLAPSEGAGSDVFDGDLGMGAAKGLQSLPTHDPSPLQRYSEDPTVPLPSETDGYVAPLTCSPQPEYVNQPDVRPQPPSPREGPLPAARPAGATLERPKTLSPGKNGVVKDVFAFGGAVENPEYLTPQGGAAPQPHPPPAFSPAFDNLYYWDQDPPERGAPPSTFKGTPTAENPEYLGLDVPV
- Protocol Summary: KINOMEscan competition binding
- Protocol Conditions: compound 10.0 µM

- Structure Smiles String: "N#Cc1ccc(-c2cnc3[nH]cc(NC(=O)c4cccnc4)c3c2)cc1"
  kinase still bound, per cent of control: "no effect (inactive)"
- Structure Smiles String: "Cc1ccc(O)cc1Nc1ccnc(Nc2cccc(C(N)=O)c2)n1"
  kinase still bound, per cent of control: "no effect (inactive)"
- Structure Smiles String: "NC(=O)c1ccc(Nc2cc(-c3ccc(F)cc3)[nH]n2)cc1"
  kinase still bound, per cent of control: "no effect (inactive)"
- Structure Smiles String: "O=C(Nc1n[nH]c2nc(-c3cccc(O)c3)ccc12)C1CC1"
  kinase still bound, per cent of control: "no effect (inactive)"
- Structure Smiles String: "CCS(=O)(=O)Nc1ccc2c(c1)[C@H](/C(=N/c1ccc(CN3CCCCC3)cc1)c1ccccc1)C(=O)N2"
  kinase still bound, per cent of control: "no effect (inactive)"
- Structure Smiles String: "NC(=O)c1ccc(-c2cc(C(N)=O)c(N)c(-c3ccc(S(N)(=O)=O)cc3)c2)cc1"
  kinase still bound, per cent of control: "no effect (inactive)"
- Structure Smiles String: "Cc1cc(Nc2cc(N3CCN(C)CC3)nc(Sc3ccc(NC(=O)C4CC4)cc3)n2)[nH]n1"
  kinase still bound, per cent of control: "no effect (inactive)"
- Structure Smiles String: "Cc1ccc(NC(=O)c2cccc(N3CCCCC3)c2)cc1-c1ccc(C(=O)NCC2CC2)cc1"
  kinase still bound, per cent of control: "no effect (inactive)"
- Structure Smiles String: "Cc1ccc(C(=O)Nc2cccc(C(C)(C)C)c2)cc1-c1ccc(C(=O)NCC2CC2)cc1"
  kinase still bound, per cent of control: "no effect (inactive)"
- Structure Smiles String: "CC(=O)c1c(-c2ccncc2)[nH]c(-c2ccncc2)c1C"
  kinase still bound, per cent of control: "no effect (inactive)"
- Structure Smiles String: "O=C1Nc2ccccc2/C1=C/c1ccc[nH]1"
  kinase still bound, per cent of control: "no effect (inactive)"
- Structure Smiles String: "Nc1ncnc2c1c(-c1cccc(O)c1)cn2C1CCNCC1"
  kinase still bound, per cent of control: "0%"
- Structure Smiles String: "c1ccc(-c2n[nH]cc2-c2ccnc3ccccc23)nc1"
  kinase still bound, per cent of control: "no effect (inactive)"

###

- Measurement Target: CDK16 (human)
- Protocol Summary: KINOMEscan competition binding
- Protocol Conditions: compound 10.0 µM
Quantity Measured: kinase still bound, per cent of control

- Structure Smiles String: "O=C(Nc1n[nH]c2nc(-c3cccc(O)c3)ccc12)C1CC1"
  Quantity Measured: "kinase still bound, per cent of control"
  Data Value: "0%"
- Structure Smiles String: "Cc1ccc(NC(=O)c2cccc(N3CCCCC3)c2)cc1-c1ccc(C(=O)NCC2CC2)cc1"
  Quantity Measured: "kinase still bound, per cent of control"
  Data Value: "no effect (inactive)"
- Structure Smiles String: "c1ccc(-c2n[nH]cc2-c2ccnc3ccccc23)nc1"
  Quantity Measured: "kinase still bound, per cent of control"
  Data Value: "no effect (inactive)"
- Structure Smiles String: "Nc1ncnc2c1c(-c1cccc(O)c1)cn2C1CCNCC1"
  Quantity Measured: "kinase still bound, per cent of control"
  Data Value: "no effect (inactive)"
- Structure Smiles String: "NC(=O)c1ccc(-c2cc(C(N)=O)c(N)c(-c3ccc(S(N)(=O)=O)cc3)c2)cc1"
  Quantity Measured: "kinase still bound, per cent of control"
  Data Value: "no effect (inactive)"

###

- Measurement Target: TGFBR1 (human)
- Protocol Summary: KINOMEscan competition binding
- Protocol Conditions: compound 10.0 µM

- Structure Smiles String: "NC(=O)Nc1sc(-c2ccc(F)cc2)cc1C(N)=O"
  kinase still bound, per cent of control: "no effect (inactive)"
- Structure Smiles String: "c1ccc(-c2n[nH]cc2-c2ccnc3ccccc23)nc1"
  kinase still bound, per cent of control: "0%"
- Structure Smiles String: "Cc1ccc(O)cc1Nc1ccnc(Nc2cccc(C(N)=O)c2)n1"
  kinase still bound, per cent of control: "0%"
- Structure Smiles String: "NC(=O)c1ccc(-c2cc(C(N)=O)c(N)c(-c3ccc(S(N)(=O)=O)cc3)c2)cc1"
  kinase still bound, per cent of control: "no effect (inactive)"
- Structure Smiles String: "CC(=O)c1c(-c2ccncc2)[nH]c(-c2ccncc2)c1C"
  kinase still bound, per cent of control: "no effect (inactive)"

###

- Measurement Target: MAPK14 (human)
- Protocol Summary: KINOMEscan competition binding
- Protocol Conditions: compound 10.0 µM
Quantity Measured: kinase still bound, per cent of control

- Structure Smiles String: "CC(=O)c1c(-c2ccncc2)[nH]c(-c2ccncc2)c1C"
  Data Value: "no effect (inactive)"
- Structure Smiles String: "CCS(=O)(=O)Nc1ccc2c(c1)[C@H](/C(=N/c1ccc(CN3CCCCC3)cc1)c1ccccc1)C(=O)N2"
  Data Value: "no effect (inactive)"
- Structure Smiles String: "CN(C)c1ccc(-c2cc3ncccc3c(NCCCCN)n2)cc1"
  Data Value: "no effect (inactive)"
- Structure Smiles String: "NC(=O)c1ccc(Nc2cc(-c3ccc(F)cc3)[nH]n2)cc1"
  Data Value: "no effect (inactive)"
- Structure Smiles String: "N#Cc1ccc(-c2cnc3[nH]cc(NC(=O)c4cccnc4)c3c2)cc1"
  Data Value: "no effect (inactive)"
- Structure Smiles String: "O=C1Nc2ccccc2/C1=C/c1ccc[nH]1"
  Data Value: "no effect (inactive)"
- Structure Smiles String: "NC(=O)Nc1sc(-c2ccc(F)cc2)cc1C(N)=O"
  Data Value: "no effect (inactive)"

###

- Measurement Target: CSNK2A1 (human) (UniProt P68400)
- Sequence (P68400 whole entry, looked up): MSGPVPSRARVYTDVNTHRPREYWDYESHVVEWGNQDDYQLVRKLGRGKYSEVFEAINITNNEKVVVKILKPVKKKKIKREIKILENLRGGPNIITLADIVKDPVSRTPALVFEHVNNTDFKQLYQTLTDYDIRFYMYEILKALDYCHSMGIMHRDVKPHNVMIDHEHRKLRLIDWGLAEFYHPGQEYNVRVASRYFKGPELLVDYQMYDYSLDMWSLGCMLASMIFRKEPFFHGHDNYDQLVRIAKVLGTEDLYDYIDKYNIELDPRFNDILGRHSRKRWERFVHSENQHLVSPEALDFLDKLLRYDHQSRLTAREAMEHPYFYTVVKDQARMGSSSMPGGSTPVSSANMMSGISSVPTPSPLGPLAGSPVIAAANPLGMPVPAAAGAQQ
- Protocol Summary: KINOMEscan competition binding
- Protocol Conditions: compound 10.0 µM

- Structure Smiles String: "c1ccc(-c2n[nH]cc2-c2ccnc3ccccc23)nc1"
  kinase still bound, per cent of control: "no effect (inactive)"
- Structure Smiles String: "Cc1cc(Nc2cc(N3CCN(C)CC3)nc(Sc3ccc(NC(=O)C4CC4)cc3)n2)[nH]n1"
  kinase still bound, per cent of control: "0%"
- Structure Smiles String: "NC(=O)c1ccc(-c2cc(C(N)=O)c(N)c(-c3ccc(S(N)(=O)=O)cc3)c2)cc1"
  kinase still bound, per cent of control: "no effect (inactive)"

###

- Measurement Target: EPHA3 (human) (UniProt P29320)
- Sequence (P29320 whole entry, looked up): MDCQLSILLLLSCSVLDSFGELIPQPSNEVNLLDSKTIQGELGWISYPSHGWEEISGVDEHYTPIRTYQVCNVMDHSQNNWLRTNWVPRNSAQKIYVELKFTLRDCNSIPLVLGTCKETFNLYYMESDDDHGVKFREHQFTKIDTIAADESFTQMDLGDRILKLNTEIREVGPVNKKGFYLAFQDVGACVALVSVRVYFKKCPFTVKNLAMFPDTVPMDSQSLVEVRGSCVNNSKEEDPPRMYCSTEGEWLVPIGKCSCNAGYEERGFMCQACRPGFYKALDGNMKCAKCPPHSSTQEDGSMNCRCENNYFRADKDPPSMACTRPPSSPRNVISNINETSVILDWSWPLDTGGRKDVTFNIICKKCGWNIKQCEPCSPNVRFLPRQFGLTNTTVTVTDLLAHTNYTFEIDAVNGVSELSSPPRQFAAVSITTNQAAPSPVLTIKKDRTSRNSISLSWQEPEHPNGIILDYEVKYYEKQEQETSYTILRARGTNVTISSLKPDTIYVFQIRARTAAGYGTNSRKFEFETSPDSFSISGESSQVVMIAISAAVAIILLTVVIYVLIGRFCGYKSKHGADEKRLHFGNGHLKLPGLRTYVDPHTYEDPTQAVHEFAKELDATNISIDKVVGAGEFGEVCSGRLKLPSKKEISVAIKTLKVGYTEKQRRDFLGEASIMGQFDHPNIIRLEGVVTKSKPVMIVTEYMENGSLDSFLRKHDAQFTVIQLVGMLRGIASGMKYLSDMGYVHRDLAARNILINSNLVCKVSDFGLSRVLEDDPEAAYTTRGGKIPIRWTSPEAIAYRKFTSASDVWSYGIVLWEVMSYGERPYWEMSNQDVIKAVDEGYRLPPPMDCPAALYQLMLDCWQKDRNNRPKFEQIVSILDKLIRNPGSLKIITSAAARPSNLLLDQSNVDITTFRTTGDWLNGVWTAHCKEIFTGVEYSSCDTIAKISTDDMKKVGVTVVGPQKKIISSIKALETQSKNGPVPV
- Protocol Summary: KINOMEscan competition binding
- Protocol Conditions: compound 10.0 µM

- Structure Smiles String: "c1ccc(-c2n[nH]cc2-c2ccnc3ccccc23)nc1"
  kinase still bound, per cent of control: "no effect (inactive)"
- Structure Smiles String: "CC(=O)c1c(-c2ccncc2)[nH]c(-c2ccncc2)c1C"
  kinase still bound, per cent of control: "no effect (inactive)"
- Structure Smiles String: "Cc1ccc(O)cc1Nc1ccnc(Nc2cccc(C(N)=O)c2)n1"
  kinase still bound, per cent of control: "0%"
- Structure Smiles String: "Cc1ccc(NC(=O)c2cccc(N3CCCCC3)c2)cc1-c1ccc(C(=O)NCC2CC2)cc1"
  kinase still bound, per cent of control: "no effect (inactive)"
